system: Staphylococcus aureus; experiment: In vitro minimum inhibitory concentration (MIC) against Staphylococcus aureus UC9213; type: functional
REPORTED_ENDPOINT: MIC (µg/mL)
Number only, in µg/mL; omit the unit.

input: Report MIC under test system Staphylococcus aureus for `C/C(S)=N/C[C@H]1CC(c2cc(F)c(-n3ccnc3)c(F)c2)=NO1` .
output: 4

input: Report MIC under test system Staphylococcus aureus for `CC(=O)NC[C@H]1CC(c2ccc(N3CCN(C(=O)CO)CC3)c(F)c2)=NO1` .
output: 4

input: Report MIC under test system Staphylococcus aureus for `CC(=O)NC[C@H]1CC(c2ccc(N3CCCC3)c(F)c2)=NO1` .
output: 4

input: Report MIC under test system Staphylococcus aureus for `CC(=O)NC[C@H]1CC(c2cc(F)c(-n3ccnc3)c(F)c2)=NO1` .
output: 8

input: Report MIC under test system Staphylococcus aureus for `C/C(S)=N/C[C@H]1CC(c2cc(F)c(N3CCOCC3)c(F)c2)=NO1` .
output: 1

Continuing:
input: Report MIC under test system Staphylococcus aureus for `CC(=O)NC[C@H]1CC(c2ccc(C3=CCN(C(=O)CO)CC3)cc2)=NO1` .
output: 2

input: Report MIC under test system Staphylococcus aureus for COc1ccc(-c2ccc(C3=NOC(CNC(C)=O)C3)cc2)ccc1=O (stereo unspecified) .
output: 4

input: Report MIC under test system Staphylococcus aureus for `C/C(S)=N/C[C@H]1CC(c2ccc(-n3cccc3)c(F)c2)=NO1` .
output: 1
